Listed here: items and their measured IC50.
system: CCNTB1; assay: In vitro transcription-translation (IVTT) assay, CCNTB1 reporter; type: biochemical; settings: HeLa S3 lysate, 2 hrs at 30° C.

Some molecules with known IC50 results, for comparison:
> print(dat)
                                   molecule  system.under.test       result
1  O=C(NCC[C@@H]1CCCN1)O[C@@H]1[C@@H](O)CN[C@@H]1Cc1ccc(-c2ccc(C(F)(F)F)cc2)cc1             CCNTB1  20 to 30 µM
2  COc1ccc(C[C@H]2NC[C@H](O)[C@H]2OC(=O)NCc2ccnc(N3CCC3)c2)cc1             CCNTB1      < 10 µM
3  COc1ccc(C[C@H]2NC[C@H](O)[C@H]2OC(=O)NC[C@H]2CCN(c3ncccn3)C2)cc1             CCNTB1      < 10 µM
4  COc1ccc(C[C@H]2NC[C@H](O)[C@H]2OC(=O)NCC[C@@H]2CCCN2)cc1             CCNTB1      < 10 µM

Alright, here's another molecule for you.
Summary line: COc1ccc(C[C@H]2NC[C@H](O)[C@H]2OC(=O)NC[C@H]2CCN(C)C2)cc1 [V188306] , CCNTB1, reported IC50 = < 10 µM
